# Target: acetylcholinesterase (AChE) from Electrophorus electricus (Electrophorus electricus, UniProt O42275)
# Sequence (O42275 24-633): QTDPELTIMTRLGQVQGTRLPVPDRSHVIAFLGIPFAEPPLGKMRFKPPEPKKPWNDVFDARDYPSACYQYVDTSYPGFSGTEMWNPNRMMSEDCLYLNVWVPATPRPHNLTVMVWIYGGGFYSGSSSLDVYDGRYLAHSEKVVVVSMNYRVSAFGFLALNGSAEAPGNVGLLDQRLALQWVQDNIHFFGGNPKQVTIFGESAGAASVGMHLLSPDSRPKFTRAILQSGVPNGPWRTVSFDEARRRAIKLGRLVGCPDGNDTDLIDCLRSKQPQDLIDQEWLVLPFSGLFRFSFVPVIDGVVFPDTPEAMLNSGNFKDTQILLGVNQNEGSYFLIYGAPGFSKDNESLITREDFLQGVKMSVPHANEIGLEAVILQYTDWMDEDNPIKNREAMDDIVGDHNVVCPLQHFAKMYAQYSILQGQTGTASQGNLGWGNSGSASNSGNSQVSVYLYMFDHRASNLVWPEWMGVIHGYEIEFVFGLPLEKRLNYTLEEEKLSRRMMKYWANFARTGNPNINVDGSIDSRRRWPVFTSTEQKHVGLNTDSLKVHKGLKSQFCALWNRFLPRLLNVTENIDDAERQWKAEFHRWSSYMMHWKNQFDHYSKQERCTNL
# Test name: biochemical
# Conditions: AChE from E. electricus; 15 min incubation at 37 °C, pH 8; mean ± SD, n = 3; read-out: AChE Inhibition IC50
Kindly state pIC50 for each of the entries shown.
Units for pIC50: none; it is -log10 of a concentration expressed in mol/L.

Please supply the value of reported pIC50 for the item COc1cc(/C=C/C(=O)NCCc2ccc(O)c(O)c2)ccc1O [N-trans-Feruloyldopamine]
5.07

Please supply the value of reported pIC50 for the item COc1cc(/C=C/C(=O)O)ccc1O [trans-Ferulic acid]
4.69

Please supply the value of reported pIC50 for the item O=C(/C=C/c1ccc(O)c(O)c1)NCCc1ccc(O)c(O)c1 [N-trans-Caffeoyldopamine]
4.72

Cited source: paper PMC6027674
